Consider the following variants; for each one, report its pKd.
B1: NELF-E aptamer (parent)
chain: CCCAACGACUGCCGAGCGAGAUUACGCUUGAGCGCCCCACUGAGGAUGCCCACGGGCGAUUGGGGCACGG

variants of: B1; assay: HiTS-RAP; conditions: with NELF-E (Drosophila)
Interpret pKd as the negative base-10 log of the concentration measured in mol/L.

Lookup result for A4U C25U ; measured pKd: 8.31

Lab note: U22G C66U gave pKd of 8.25

Recorded pKd (variant A8U C37U ): 7.88

Measured pKd of U23G G44A : 7.16

Reported pKd ( A4G C9G ) = 8.24

pKd recorded for this variant, G14U G26U , is 8.21

Entry A39U U41G , pKd reported as 7.51

pKd in this record for U23G G55A : 8.13

For reference, reported pKd for C9G U23G stands at 8.27

Lab book: pKd of U29G C53G noted as 8.24

# pKd of `U41A` = 7.13

Cited source for all entries: the RNAGym collection of RNA variant scans (doi:10.1038/nmeth.2970)
